This collection of values is drawn from PubChem BioAssay.

- testName: 384-well plate pilot, post-Golgi transport modulator project, inhibition of yeast transport mutant growth (AID 636)
- assayContext: absorbance 615 nm, about 18 h, stronger effect = higher value

{"columns": ["compound", "inhibition, %"],
 "data": [
  ["Nc1ccc(C(=O)OCCCc2nc3ccccc3[nH]2)cc1", 5.41],
  ["CC(=O)Nc1ccc(S(=O)(=O)NCc2cn3c(C)csc3n2)cc1", -8.31],
  ["COc1ccc(C(=O)N2CCCc3ccccc32)cc1", -4],
  ["COc1ccc(C(=O)Nc2cccc(C)c2)cc1S(=O)(=O)N1CCOCC1", -5],
  ["CC(=O)NC1(c2nnnn2CCOC(=O)Nc2ccc(Cl)cc2)CCCCC1", -3.29],
  ["COc1ccccc1N1CCN(C(=O)CCNS(=O)(=O)c2ccc3c(c2)CCC(=O)N3)CC1", -4.53],
  ["COCCCn1c(SCC(=O)Nc2cccc(C)n2)nnc1-c1ccco1", -3.6],
  ["Cc1csc2ncc(C(=O)N3CCc4ccccc43)c(=O)n12", -7.2],
  ["Cc1ccc(-c2nn(-c3ccccc3)cc2CN(Cc2ccccc2)C(=O)CCC(=O)O)o1", -5.07],
  ["CCOC(=O)c1c(C)c(C(=O)NCC2CCCO2)c(C)n1C (stereo unspecified)", -1.71],
  ["COc1cccc(S(=O)(=O)Nc2cccnc2)c1", -0.4]
]}

* * *

Catalogue of viability readings, one per entry.
- testName: reversal of MRP1-mediated doxorubicin resistance, pilot screen, H69AR cells, doxorubicin co-treatment (AID 601)
- assayContext: H69AR cells + 2 uM doxorubicin, CellTiter-Glo, 72 h; measured here: viability with 2 uM doxorubicin; at 10 µM; stronger effect = lower value

{"columns": ["compound", "viability"],
 "data": [
  ["Cc1csc2nc(CSc3ccc(Cl)cc3)cn12", "72.3%"],
  ["Cc1n[nH]c(C)c1S(=O)(=O)N1CCCCCC1", "101%"],
  ["COc1ccc(OC)c(C(=O)c2nc3c(n2O)CCCCC3)c1", "97.6%"],
  ["CCOC(=O)C1CCN(c2c(N3CCCCCC3)c(=O)c2=O)CC1", "97.1%"],
  ["Cn1cccc1-c1cc(C(=O)O)[nH]n1", "101%"],
  ["Cc1ccc(-c2cc(C(=O)NCc3ccc4c(c3)OCO4)no2)cc1", "84.9%"],
  ["Cc1nc2sc(C(c3ccco3)N3CCN(c4ccccc4F)CC3)c(O)n2n1 (stereo unspecified)", "90.3%"],
  ["CCCC(=O)Nc1ccc(OCC(O)CNC(C)C)c(C(C)=O)c1 (stereo unspecified)", "102%"],
  ["COC(=O)c1cnn2c(C(F)(F)F)cc(-c3ccco3)nc12", "76.5%"],
  ["O=C(COc1ccccc1)Nc1nc2ccccc2[nH]1", "85.6%"],
  ["CCC1(NC(C)=O)CC2CC1CC2NC(C)=O (stereo unspecified)", "89.1%"]
]}

* * *

- testName: SK-BR-3 cell growth inhibitors, pilot screen, 24 h, human (AID 572);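 also: compound exposure lasted between 18 and 24 h rather than exactly 24 h; 100% = carrier-treated control wells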
- assayContext: SK-BR-3 viability, CellTiter-Glo luminescence, at 10 µM, stronger effect = lower value
propertyName: viability (%)

{"columns": ["molecule", "propertyName", "unitSymbol", "testValue"],
 "data": [
  ["C=CCn1c(SCC(=O)Nc2ccccc2OC)nnc1-c1ccco1", "viability", "%", 95],
  ["COc1ccc(C(=O)N2CCCc3ccccc32)cc1", "viability", "%", 87.5],
  ["COc1ccc(C)cc1S(=O)(=O)N1CCN(Cc2ccccc2)CC1", "viability", "%", 98],
  ["O=C(c1ccccc1)c1ccncc1", "viability", "%", 100],
  ["CC(C)N(C(=O)CSc1nnc(-c2cc3ccccc3cc2O)n1Cc1ccco1)C(C)C", "viability", "%", 90.5],
  ["O=C(O)c1cc(=O)c2c(OCC(O)COc3cccc4oc(C(=O)O)cc(=O)c34)cccc2o1", "viability", "%", 102],
  ["Cc1cc(C)n2cc(CSc3nnnn3-c3ccc(Cl)cc3)nc2n1", "viability", "%", 89.5],
  ["Cn1c(SCCN2CCCCC2)nnc1-c1ccccc1Br", "viability", "%", 94.5],
  ["CC(NO)C(C)(C)NO (stereo unspecified)", "viability", "%", 92],
  ["CCOc1ccc2nc(SCc3ccc(C(=O)OC)o3)[nH]c2c1", "viability", "%", 77],
  ["Cn1c(=O)n(CC(=O)OCc2ccccc2)c(=O)c2c1nc1n2CCCN1C1CCCCC1", "viability", "%", 81]
]}

* * *

- testName: 384-well plate pilot, post-Golgi transport modulator project, inhibition of yeast transport mutant growth (AID 636)
- assayContext: absorbance 615 nm, about 18 h, stronger effect = higher value

{"columns": ["compound", "unitSymbol", "inhibition"],
 "data": [
  ["c1ccc(SCc2nc3ccccc3[nH]2)nc1", "%", -5.87],
  ["Cc1cc(C)cc(OCCCC(=O)O)c1", "%", -5.6],
  ["COC(=O)C1=C(C)OC(N)=C(C#N)C1c1c(C)nn(-c2ccccc2)c1Cl (stereo unspecified)", "%", -0.27],
  ["COc1cc(OC)c(NC(=O)c2ccco2)cc1Cl", "%", -3.95],
  ["O=C(c1cccs1)N1CCN=C1SCc1ccccc1", "%", 3.51],
  ["CCOC(=O)C1CCN(c2c(N3CCCCCC3)c(=O)c2=O)CC1", "%", -1.67]
]}

* * *

Here, each record is paired with measured viability increase data.
- testName: viability gain of MRP-1-high H69AR cells under doxorubicin, pilot screen, MRP-1 activator project, CellTiter-Glo, duplicate (AID 807);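 also: compound pretreatment 18-22 h then 72 h combined with doxorubicin; 0% = doxorubicin alone and 100% = vehicle without doxorubicin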
- assayContext: H69AR viability with doxorubicin, CellTiter-Glo luminescence; at 10 µM; stronger effect = higher value

{"columns": ["compound", "unitSymbol", "viability increase"],
 "data": [
  ["CC(C)(C)c1ccc(-c2nnc3sc(-c4ccccn4)nn23)cc1", "%", 0.61],
  ["CC(C)CC(NC(=O)c1ccco1)C(=O)Nc1ccc2c(c1)OCCO2 (stereo unspecified)", "%", -1.38],
  ["CC(=O)Nc1ccc(NC(=O)c2oc3cc(C)c(C)cc3c2C)cc1", "%", -0.82],
  ["CCc1ccccc1S(=O)(=O)Cc1ccc(C(=O)NCc2ccc3c(c2)OCO3)o1", "%", -2.5],
  ["CCOc1ccc(-n2c(SCC(=O)Nc3ccc4c(c3)OCCO4)nc3c(c2=O)SCC3)cc1", "%", -2.09],
  ["O=C(Cn1cnc2c(nnn2-c2ccccc2)c1=O)N1CCCc2ccccc21", "%", 0.06],
  ["Cc1cc(C)n2c(SCC#N)nnc2n1", "%", 0.04],
  ["Cc1cc(NS(=O)(=O)c2ccc(NC(=O)CCCC(=O)O)cc2)nc(C)n1", "%", -1.07],
  ["O=C(Cn1nnc(-c2ccccc2NC(=O)c2ccccc2F)n1)NCc1ccco1", "%", -6.92],
  ["COc1ccc(C2N(c3ccc(Cl)cc3)C(=O)C3CCCN32)cc1 (stereo unspecified)", "%", 0.55],
  ["CCn1cc(C(=O)NCCCN2CCC(C)CC2)c2cc(OC)c(OC)cc2c1=O", "%", -3.47]
]}

* * *

- testName: 384-well plate pilot, post-Golgi transport modulator project, inhibition of yeast transport mutant growth (AID 636)
- assayContext: absorbance 615 nm, about 18 h, stronger effect = higher value

{"columns": ["compound", "inhibition, %"],
 "data": [
  ["O=S(=O)(c1ccc(OCC(O)CN2CCC(Cc3ccccc3)CC2)cc1)N1CCOCC1 (stereo not drawn)", -6.45],
  ["CCCCn1nnc(NC(=O)c2cc3ccccc3o2)n1", 0.13],
  ["COC(=O)C(C)C1Sc2ccccc2NC1=O (stereo not drawn)", -7.7],
  ["CCN(C(=O)Cc1c(C(=O)O)[nH]c2ccccc12)c1cc(OC)ccc1OC", -6.62],
  ["Cc1ccc2cc3cc(C(=O)NCCN4CCOCC4)oc3nc2c1", -5.13],
  ["COc1ccc(C)cc1S(=O)(=O)N1CCN(Cc2ccccc2)CC1", -2.24],
  ["COc1cc(NC(=O)c2cc(CC(C)C)on2)c(OC)cc1Cl", 1.15],
  ["COc1ccc(C)cc1-n1nnnc1SCC(=O)Nc1cc(C)on1", -2.6],
  ["COc1ccc(-c2cn3c(C)c(C(=O)Nc4cc(NC(C)=O)ccc4OC)sc3n2)cc1", -5.73],
  ["COc1cccc(-c2cc(C(=O)N3CCc4ccccc4C3)no2)c1", -8.51],
  ["CCC(=O)N1CCNC(=O)C1CC(=O)Nc1ccc(C)c(Cl)c1 (stereo not drawn)", -2.8],
  ["O=C(NCc1cccnc1)c1cn(CCc2ccccc2)nn1", -5.27],
  ["Cc1cc(=O)n(CC(C)C)c(O)c1C#N", 0.53],
  ["COc1ccc(N2C(N)=C(C#N)C(c3cccnc3)C3=C2CC(C)(C)CC3=O)cc1 (stereo not drawn)", -8.9],
  ["N#CC1=C(SCC(=O)c2cc3ccccc3oc2=O)NC(=O)C(C#N)C12CCCC2 (stereo not drawn)", -3.2],
  ["Cc1ccc(-n2ncc3c(=O)n(CC(=O)NC4CCCCC4)cnc32)cc1C", -3.68],
  ["c1ccc(-c2cn3c4c(sc3n2)CCCC4)cc1", -2.37],
  ["CC(C)(C)C(=O)CNS(=O)(=O)c1ccc(S(=O)(=O)NC2CCCC2)cc1", -3.56],
  ["O=C(CSc1nnc2ccccn12)NCCN1C(=O)CSC1=O", -3.64],
  ["CC1NC(=O)NC1CCCCCC(=O)NCCc1ccccc1 (stereo not drawn)", -5.07],
  ["Cc1nc2ccccc2cc1O", -6.05],
  ["O=C(CSc1nnc(CNC(=O)c2cccs2)o1)NCCc1ccccc1", -0.9],
  ["COc1ccc(CCNC(=O)COc2ccc(S(=O)(=O)N3CCOCC3)cc2)cc1", -6.76]
]}
